Origin of the recorded values: ChEMBL document CHEMBL1146858

Biological target: Coagulation factor VII/tissue factor (Homo sapiens) (UniProt P08709+P13726)
Test: Anticoagulant activity in plasma by PT assay
Type: functional, cell-free
Recorded 2PT by entry
measurementLabel: 2PT (µM)

>>> print(df.to_string())
                             chemicalstring  observedmeasurement
0  Nc1noc2ccc(-n3nc(C(F)(F)F)c4c3C(=O)N(c3ccc(-c5ccccc5CN5CCNCC5)cc3)CC4)cc12                   14
1  CN(C)Cc1ccccc1-c1ccc(N2CCCc3c(C(F)(F)F)nn(-c4ccc5onc(N)c5c4)c3C2=O)cc1                    4
2  CN(C)Cc1ccccc1-c1ccc(N2CCc3c(C(F)(F)F)nn(-c4ccc5onc(N)c5c4)c3C2=O)c(F)c1                  5.6
3  Nc1noc2ccc(-n3nc(C(F)(F)F)c4c3C(=O)N(c3ccc(-c5ccccc5CN5CCCC5)cc3)CC4)cc12                  3.2
4  CN(C)Cc1ccccc1-c1ccc(N2CC=Cc3c(C(F)(F)F)nn(-c4ccc5onc(N)c5c4)c3C2=O)cc1                  6.9
5  Nc1noc2ccc(-n3nc(C(F)(F)F)c4c3C(=O)N(c3ccc(-c5ccccc5CN5CC[C@@H](O)C5)cc3)CC4)cc12                  3.6
6  CN(C)Cc1ccccc1-c1ccc(N2CCCc3c(C(F)(F)F)nn(-c4ccc5onc(N)c5c4)c3C2=O)c(F)c1                  8.5
7  Cc1nn(-c2ccc3onc(N)c3c2)c2c1CCN(c1ccc(-c3ccccc3CN3CC[C@@H](O)C3)cc1F)C2=O                  4.9
8  Cc1nn(-c2ccc3onc(N)c3c2)c2c1CCN(c1ccc(-c3ccccc3CN3CC[C@@H](O)C3)cc1)C2=O                  2.8

* * *

Readings of 2PT for the listed molecules
Molecular target: Coagulation factor VII/tissue factor (Homo sapiens) (UniProt P08709+P13726)
Assay: Anticoagulant activity in plasma by PT assay
Type: functional, cell-free
measurementLabel: 2PT (µM)

In [3]: df
Out[3]:
                             chemicalstring  unitannotation  observedmeasurement
0  Nc1noc2ccc(-n3nc(C(F)(F)F)c4c3C(=O)N(c3ccc(-c5ccccc5CN5CC[C@@H](O)C5)cc3F)CC4)cc12              µM                  8.4
1  Cc1nn(-c2ccc3onc(N)c3c2)c2c1CCN(c1ccc(-c3ccccc3CN(C)C)cc1)C2=O              µM                  2.1
2  CCN(C)Cc1ccccc1-c1ccc(N2CCc3c(C(F)(F)F)nn(-c4ccc5onc(N)c5c4)c3C2=O)cc1              µM                  3.2
3  Nc1noc2ccc(-n3nc(C(F)(F)F)c4c3C(=O)N(c3ccc(-c5ccccc5CN5CC[C@H](O)C5)cc3)CC4)cc12              µM                  4.8

* * *

Molecular target: Prothrombin (Homo sapiens, UniProt P00734)
measurementLabel: Ki (µM)

In [3]: df
Out[3]:
                             chemicalstring  observedmeasurement
0  CN(C)Cc1ccccc1-c1ccc(N2CCc3c(C(F)(F)F)nn(-c4ccc5onc(N)c5c4)c3C2=O)c(F)c1                0.075
1  CCN(CC)Cc1ccccc1-c1ccc(N2CCc3c(C(F)(F)F)nn(-c4ccc5onc(N)c5c4)c3C2=O)cc1                0.097
2  Nc1noc2ccc(-n3nc(C(F)(F)F)c4c3C(=O)N(c3ccc(-c5ccccc5CN5CC[C@@H](O)C5)cc3F)CC4)cc12                0.072
3  Cc1nn(-c2ccc3onc(N)c3c2)c2c1CCN(c1ccc(-c3ccccc3CN3CC[C@@H](O)C3)cc1)C2=O                 0.13
4  Nc1noc2ccc(-n3nc(C(F)(F)F)c4c3C(=O)N(c3ccc(-c5ccccc5CN5CCC(O)CC5)cc3)CC4)cc12                0.071
